Biological target: cGMP PDE purified from human colon HT-29 cultured tumor cells (Homo sapiens, UniProt O76074)
Assay: cGMP PDE inhibition assay
Format: biochemical
Settings: Table 9 qualitative profile
Endpoint name: PDE Inhibition

CC1=C(CC(=O)N(C2CCCCC2)C2CCCCC2)c2cc(F)ccc2/C1=C\c1ccc(S(C)(=O)=O)cc1 [F]: −
COc1cc(/C=C2/C(C)=C(CC(=O)O)c3cc(F)ccc32)cc(OC)c1OC [Compound B]: + + +
CC1=C(CC(=O)O)c2cc(F)ccc2/C1=C\c1ccc(S(C)(=O)=O)cc1 [Exisulind]: + +
CCN(CC)CCSC12CC(=O)OC1(C)/C(=C/c1ccc(S(C)(=O)=O)cc1)c1ccc(F)cc12 (racemic) [A]: −

* * *

Reported pIC50 by item:
Target: cGMP PDE purified from human colon HT-29 cultured tumor cells (Homo sapiens, UniProt O76074)
Note on units: pIC50 is unitless, being -log10 of a concentration expressed in mol/L.

Examples with their reported pIC50 follow.
COc1cc(/C=C2/C(C)=C(CC(=O)O)c3cc(F)ccc32)cc(OC)c1OC [Compound B]: 4.74
CC1=C(CC(=O)O)c2cc(F)ccc2/C1=C\c1ccc(S(C)(=O)=O)cc1 [Exisulind]: 4.25

// moving on: another record for pIC50
Input COc1cc(/C=C2/C(C)=C(CC(=O)NCc3ccccc3)c3cc(F)ccc32)cc(OC)c1OC [Compound E] . Output pIC50: 7.10

* * *

Test system: HT-29 cells
Test: Growth inhibition of HT-29 cells (SRB assay; trypan blue counting in time course)
Assay type: cell-based, human
Conditions: Table 9 qualitative profile
Endpoint name: Growth Inhibition

Examples with their reported Growth Inhibition follow.
CC(=O)NC(CSC12CC(=O)OC1(C)/C(=C/c1ccc(S(C)(=O)=O)cc1)c1ccc(F)cc12)C(=O)O (racemic) [D]: + +
CC1=C(CC(=O)O)c2cc(F)ccc2/C1=C\c1ccc(S(C)(=O)=O)cc1 [Exisulind]: + +
CCN(CC)CCSC12CC(=O)OC1(C)/C(=C/c1ccc(S(C)(=O)=O)cc1)c1ccc(F)cc12 (racemic) [A]: + + +
COc1cc(/C=C2/C(C)=C(CC(=O)O)c3cc(F)ccc32)cc(OC)c1OC [Compound B]: + + +
CC1=C(CC(=O)N(C2CCCCC2)C2CCCCC2)c2cc(F)ccc2/C1=C\c1ccc(S(C)(=O)=O)cc1 [F]: + +

// moving on: another record for Growth Inhibition
Input Clc1cccc(Nc2nnc(-c3ccccc3)c3ccccc23)c1 [MY5445, 1-(3-chloroanilino)-4-phenyphthalazine, reference compound] . Output Growth Inhibition: + + +
